- system.name: Liver carboxylesterase 1 (Homo sapiens, UniProt P23141)
- Sequence (P23141 whole entry): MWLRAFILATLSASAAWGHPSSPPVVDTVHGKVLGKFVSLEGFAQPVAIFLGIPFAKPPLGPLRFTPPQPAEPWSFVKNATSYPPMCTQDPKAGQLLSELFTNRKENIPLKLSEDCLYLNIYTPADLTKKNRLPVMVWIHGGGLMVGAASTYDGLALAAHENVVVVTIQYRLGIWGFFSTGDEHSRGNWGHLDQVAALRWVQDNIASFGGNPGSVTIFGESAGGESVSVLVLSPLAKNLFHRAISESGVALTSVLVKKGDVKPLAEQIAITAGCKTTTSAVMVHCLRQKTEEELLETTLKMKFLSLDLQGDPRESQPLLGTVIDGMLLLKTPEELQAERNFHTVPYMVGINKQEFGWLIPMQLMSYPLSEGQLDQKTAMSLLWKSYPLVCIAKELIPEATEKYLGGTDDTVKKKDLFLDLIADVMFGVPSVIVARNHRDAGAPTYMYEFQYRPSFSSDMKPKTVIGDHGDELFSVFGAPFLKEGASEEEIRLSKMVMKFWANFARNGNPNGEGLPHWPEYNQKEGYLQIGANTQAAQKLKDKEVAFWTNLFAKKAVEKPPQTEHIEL
metric.name: IC50 (µM)

a = N#Cc1coc(C(=O)CCCCCCc2ccccc2)n1
b = O=C(CCCCCCc1ccccc1)c1nc(-c2ccccn2)co1
**Q:** When the recorded IC50 values are compared, which is smaller: that of a or that of b ? Your choice should be expressed through its label.
**A:** a
(a: 0.03 µM, b: 10 µM)

---

- method: Selectivity ratio of IC50 for KIAA1363 to IC50 for rat FAAH
The following compounds are shown together with reported Ratio IC50 values.

Some solved entries appear below for comparison.
O=C(CCCCCCc1ccccc1)c1nc(C(F)(F)F)co1; > 200
O=C(CCCCCCc1ccccc1)c1nc(-c2ccncc2)co1; 1500
N#Cc1coc(C(=O)CCCCCCc2ccccc2)n1; > 700

# Ratio IC50 (compound: O=C(O)c1coc(C(=O)CCCCCCc2ccccc2)n1 ) is > 3000

# Ratio IC50 (compound: O=C(CCCCCCc1ccccc1)c1nc(-c2ccccn2)co1 ) is 25

# Ratio IC50 (compound: O=C(CCCCCCc1ccccc1)c1ncc(C(F)(F)F)o1 ) is > 1400

# Ratio IC50 (compound: O=C(O)c1cnc(C(=O)CCCCCCc2ccccc2)o1 ) is > 100

---

Protein target, amino acids: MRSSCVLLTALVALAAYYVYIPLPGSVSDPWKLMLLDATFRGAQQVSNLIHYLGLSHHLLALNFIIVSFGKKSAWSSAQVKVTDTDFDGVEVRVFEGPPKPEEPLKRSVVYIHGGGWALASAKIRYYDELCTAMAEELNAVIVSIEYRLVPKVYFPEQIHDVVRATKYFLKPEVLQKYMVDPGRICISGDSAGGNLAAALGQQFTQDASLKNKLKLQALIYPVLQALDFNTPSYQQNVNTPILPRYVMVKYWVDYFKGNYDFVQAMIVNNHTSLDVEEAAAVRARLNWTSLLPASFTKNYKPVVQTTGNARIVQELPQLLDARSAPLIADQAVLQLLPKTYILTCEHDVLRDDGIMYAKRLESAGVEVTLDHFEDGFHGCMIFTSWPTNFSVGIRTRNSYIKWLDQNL
pIC50: −log10 of the molar value.
metric.name: pIC50

1 = O=C(CCCCCCc1ccccc1)c1nc(C(F)(F)F)co1
2 = N#Cc1coc(C(=O)CCCCCCc2ccccc2)n1
**Q:** For the two items 1 and 2 , which reports the higher pIC50 value? Your choice should be expressed through its label.
**A:** 1
